Measured Max IL-2 accompanies every entry in the list below.
- test system: T1, human LAG-3 expressed on cells (human, UniProt P18627 23-525)
- T1 sequence (looked up): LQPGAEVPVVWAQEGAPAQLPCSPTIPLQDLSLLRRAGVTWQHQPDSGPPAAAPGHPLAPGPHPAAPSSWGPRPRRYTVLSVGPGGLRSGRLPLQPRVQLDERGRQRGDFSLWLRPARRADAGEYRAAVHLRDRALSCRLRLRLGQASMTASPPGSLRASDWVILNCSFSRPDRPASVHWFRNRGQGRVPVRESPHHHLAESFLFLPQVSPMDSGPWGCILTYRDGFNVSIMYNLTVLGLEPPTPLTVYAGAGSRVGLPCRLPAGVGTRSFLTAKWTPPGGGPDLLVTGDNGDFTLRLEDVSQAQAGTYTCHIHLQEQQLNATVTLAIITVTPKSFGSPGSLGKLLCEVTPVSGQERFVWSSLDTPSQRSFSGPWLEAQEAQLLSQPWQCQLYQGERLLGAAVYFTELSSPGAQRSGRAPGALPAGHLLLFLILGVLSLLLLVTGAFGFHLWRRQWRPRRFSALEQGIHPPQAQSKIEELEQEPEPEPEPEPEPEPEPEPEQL
- protocol details: cell-based or functional assay
Give the number; pg/mL is assumed, so skip it.

binder="mAb749 (antibody, V domains shown, murine hybridoma anti-LAG-3 mAb) VH: EVQLQQSGAELVRPGASVKVSCTASDFNIKDDYVHWVKQRPEQGLEWIGWIDPENGDTEYASKFQGKATITADTSSNTAYLQLSSLTSEDTAVYFCSTWDAEENYWGQGTTLSVSS VL: DIVLTQAAPSVPVTPGESVSISCRSSKSLLHSNGNTYLYWFLQRPGQSPQVLIYRMSNLASGVPVRFSGSGSGTAFTLRISRVEAEDVGVYYCMQHLEYPFTFGSGTKLEIK" data_value=513

--- query ---
**Q:** Which Max IL-2 reading was recorded for the binder mAb747 (antibody, V domains shown, murine hybridoma anti-LAG-3 mAb; also called 3502-mAb747) VH: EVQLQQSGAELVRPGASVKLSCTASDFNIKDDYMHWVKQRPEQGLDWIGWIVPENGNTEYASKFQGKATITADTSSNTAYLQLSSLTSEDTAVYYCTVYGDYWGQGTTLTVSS VL: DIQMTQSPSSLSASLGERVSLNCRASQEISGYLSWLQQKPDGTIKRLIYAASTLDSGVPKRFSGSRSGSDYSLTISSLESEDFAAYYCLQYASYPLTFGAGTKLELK ?
**A:** 729

Cited source: patent US20210188980A1
